Each recorded value in this set is attributed to paper PMC4664181.

Molecular target: NR1/NR2B (Rattus norvegicus, UniProt Q00960)
Sequence (Q00960 27-1482, other chains not shown): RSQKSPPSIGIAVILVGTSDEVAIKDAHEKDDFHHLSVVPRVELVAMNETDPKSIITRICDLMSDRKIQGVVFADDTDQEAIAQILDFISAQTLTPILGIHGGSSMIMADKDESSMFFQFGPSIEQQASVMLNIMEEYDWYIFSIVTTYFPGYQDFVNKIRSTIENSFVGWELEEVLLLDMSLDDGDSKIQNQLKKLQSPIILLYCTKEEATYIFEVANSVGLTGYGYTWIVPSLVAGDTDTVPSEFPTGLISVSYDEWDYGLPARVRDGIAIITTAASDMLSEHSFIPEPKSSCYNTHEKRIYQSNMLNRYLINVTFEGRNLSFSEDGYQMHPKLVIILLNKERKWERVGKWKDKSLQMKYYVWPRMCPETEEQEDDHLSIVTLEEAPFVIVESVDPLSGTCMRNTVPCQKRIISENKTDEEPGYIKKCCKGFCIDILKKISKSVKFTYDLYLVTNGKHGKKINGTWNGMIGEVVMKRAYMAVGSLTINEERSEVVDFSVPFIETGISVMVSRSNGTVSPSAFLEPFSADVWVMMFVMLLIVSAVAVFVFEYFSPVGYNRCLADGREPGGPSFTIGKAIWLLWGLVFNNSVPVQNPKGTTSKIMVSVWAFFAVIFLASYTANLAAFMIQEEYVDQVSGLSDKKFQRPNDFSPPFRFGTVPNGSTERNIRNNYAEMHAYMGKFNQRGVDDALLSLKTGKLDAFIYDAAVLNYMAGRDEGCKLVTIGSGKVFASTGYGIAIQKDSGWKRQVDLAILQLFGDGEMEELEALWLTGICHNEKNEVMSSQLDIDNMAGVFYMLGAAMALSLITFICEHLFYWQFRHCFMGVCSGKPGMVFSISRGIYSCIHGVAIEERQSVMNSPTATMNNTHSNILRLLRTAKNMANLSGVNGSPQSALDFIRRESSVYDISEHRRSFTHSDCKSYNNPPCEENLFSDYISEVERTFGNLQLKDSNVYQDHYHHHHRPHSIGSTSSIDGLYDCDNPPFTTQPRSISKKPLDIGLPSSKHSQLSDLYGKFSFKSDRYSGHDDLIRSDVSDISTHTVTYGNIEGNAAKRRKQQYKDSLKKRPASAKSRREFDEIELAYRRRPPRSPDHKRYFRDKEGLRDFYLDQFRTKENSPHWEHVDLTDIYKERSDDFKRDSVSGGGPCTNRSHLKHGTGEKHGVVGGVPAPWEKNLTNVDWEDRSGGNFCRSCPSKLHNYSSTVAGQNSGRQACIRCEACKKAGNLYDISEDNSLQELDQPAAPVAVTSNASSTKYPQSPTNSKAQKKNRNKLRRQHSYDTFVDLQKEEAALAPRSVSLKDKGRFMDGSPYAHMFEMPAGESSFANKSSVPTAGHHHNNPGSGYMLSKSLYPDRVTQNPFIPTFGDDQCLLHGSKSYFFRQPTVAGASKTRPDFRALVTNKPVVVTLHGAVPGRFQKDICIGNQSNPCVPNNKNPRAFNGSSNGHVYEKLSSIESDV
Assay type: cell-based
Conditions: NR1/NR2B; NR = no response up to 1000 μM
EC50: recorded values

O=C(O)[C@H]1CN[C@@H]1C(=O)O [L-trans-ADC] | 170 µM
O=C(O)[C@H]1NC[C@H]1C(=O)O [L-cis-ADC] | > 1000 µM

The record that follows has no EC50 shown yet.
Consider O=C(O)[C@H]1CN[C@H]1C(=O)O [D-cis-ADC, (2R,3S)-Azetidine-2,3-dicarboxylic acid] . Its measured EC50 is > 3000 µM

---

Target: NR1/NR2D (Rattus norvegicus, UniProt P35439+Q62645)
Sequence (Q62645 28-1323, other chains not shown): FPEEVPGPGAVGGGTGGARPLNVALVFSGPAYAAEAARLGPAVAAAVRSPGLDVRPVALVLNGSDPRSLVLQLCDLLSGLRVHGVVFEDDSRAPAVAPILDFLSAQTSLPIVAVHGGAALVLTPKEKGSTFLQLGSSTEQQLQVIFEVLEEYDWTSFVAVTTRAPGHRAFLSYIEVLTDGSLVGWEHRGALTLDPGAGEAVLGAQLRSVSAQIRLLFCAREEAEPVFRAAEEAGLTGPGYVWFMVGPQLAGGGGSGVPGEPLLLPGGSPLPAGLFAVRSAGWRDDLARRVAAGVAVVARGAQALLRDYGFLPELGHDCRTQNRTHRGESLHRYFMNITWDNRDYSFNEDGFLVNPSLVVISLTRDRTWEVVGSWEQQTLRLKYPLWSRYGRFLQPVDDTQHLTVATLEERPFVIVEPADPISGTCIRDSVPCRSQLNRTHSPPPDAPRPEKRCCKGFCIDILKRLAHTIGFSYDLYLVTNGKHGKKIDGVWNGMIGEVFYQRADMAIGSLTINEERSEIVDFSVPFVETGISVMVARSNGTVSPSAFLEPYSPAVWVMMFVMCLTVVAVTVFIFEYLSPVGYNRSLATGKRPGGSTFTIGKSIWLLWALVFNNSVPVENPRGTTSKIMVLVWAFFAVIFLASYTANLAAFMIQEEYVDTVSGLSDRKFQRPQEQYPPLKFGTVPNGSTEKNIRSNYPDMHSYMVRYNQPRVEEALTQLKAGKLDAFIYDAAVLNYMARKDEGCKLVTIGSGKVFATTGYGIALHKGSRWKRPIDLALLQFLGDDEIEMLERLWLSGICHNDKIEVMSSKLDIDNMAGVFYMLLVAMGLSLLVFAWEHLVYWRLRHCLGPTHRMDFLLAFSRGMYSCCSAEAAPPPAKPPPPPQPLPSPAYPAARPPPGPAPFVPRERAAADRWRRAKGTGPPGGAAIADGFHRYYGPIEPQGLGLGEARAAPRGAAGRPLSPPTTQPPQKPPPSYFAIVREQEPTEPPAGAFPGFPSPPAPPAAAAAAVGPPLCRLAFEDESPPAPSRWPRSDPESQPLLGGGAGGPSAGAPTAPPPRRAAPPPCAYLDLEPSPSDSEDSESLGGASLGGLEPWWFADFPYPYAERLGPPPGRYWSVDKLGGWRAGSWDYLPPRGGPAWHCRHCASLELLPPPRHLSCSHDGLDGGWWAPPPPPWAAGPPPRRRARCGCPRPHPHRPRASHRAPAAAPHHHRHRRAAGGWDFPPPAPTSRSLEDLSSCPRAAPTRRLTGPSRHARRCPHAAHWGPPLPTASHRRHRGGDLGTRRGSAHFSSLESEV
measure-name: pEC50
Reminder that pEC50 means the negative base-10 logarithm of the concentration expressed in mol/L.

Reported pEC50 of O=C(O)[C@@H]1CN[C@H]1C(=O)O [D-trans-ADC, (2R,3R)-Azetidine-2,3-dicarboxylic acid] : 3.18

---

Target: NR1/NR2D (Rattus norvegicus)
Type: cell-based
Settings: NR1/NR2D
We begin with a simple list: items and their reported EC50.
Write it as a number; the unit µM goes unstated.

So, O=C(O)[C@H]1CN[C@@H]1C(=O)O [L-trans-ADC] ? Its EC50 was 50

O=C(O)[C@H]1CN[C@H]1C(=O)O [D-cis-ADC, (2R,3S)-Azetidine-2,3-dicarboxylic acid] has a reported EC50 of 230

---

Target: NR1/NR2A (Rattus norvegicus)
Sequence (Q00959 23-1464, other chains not shown): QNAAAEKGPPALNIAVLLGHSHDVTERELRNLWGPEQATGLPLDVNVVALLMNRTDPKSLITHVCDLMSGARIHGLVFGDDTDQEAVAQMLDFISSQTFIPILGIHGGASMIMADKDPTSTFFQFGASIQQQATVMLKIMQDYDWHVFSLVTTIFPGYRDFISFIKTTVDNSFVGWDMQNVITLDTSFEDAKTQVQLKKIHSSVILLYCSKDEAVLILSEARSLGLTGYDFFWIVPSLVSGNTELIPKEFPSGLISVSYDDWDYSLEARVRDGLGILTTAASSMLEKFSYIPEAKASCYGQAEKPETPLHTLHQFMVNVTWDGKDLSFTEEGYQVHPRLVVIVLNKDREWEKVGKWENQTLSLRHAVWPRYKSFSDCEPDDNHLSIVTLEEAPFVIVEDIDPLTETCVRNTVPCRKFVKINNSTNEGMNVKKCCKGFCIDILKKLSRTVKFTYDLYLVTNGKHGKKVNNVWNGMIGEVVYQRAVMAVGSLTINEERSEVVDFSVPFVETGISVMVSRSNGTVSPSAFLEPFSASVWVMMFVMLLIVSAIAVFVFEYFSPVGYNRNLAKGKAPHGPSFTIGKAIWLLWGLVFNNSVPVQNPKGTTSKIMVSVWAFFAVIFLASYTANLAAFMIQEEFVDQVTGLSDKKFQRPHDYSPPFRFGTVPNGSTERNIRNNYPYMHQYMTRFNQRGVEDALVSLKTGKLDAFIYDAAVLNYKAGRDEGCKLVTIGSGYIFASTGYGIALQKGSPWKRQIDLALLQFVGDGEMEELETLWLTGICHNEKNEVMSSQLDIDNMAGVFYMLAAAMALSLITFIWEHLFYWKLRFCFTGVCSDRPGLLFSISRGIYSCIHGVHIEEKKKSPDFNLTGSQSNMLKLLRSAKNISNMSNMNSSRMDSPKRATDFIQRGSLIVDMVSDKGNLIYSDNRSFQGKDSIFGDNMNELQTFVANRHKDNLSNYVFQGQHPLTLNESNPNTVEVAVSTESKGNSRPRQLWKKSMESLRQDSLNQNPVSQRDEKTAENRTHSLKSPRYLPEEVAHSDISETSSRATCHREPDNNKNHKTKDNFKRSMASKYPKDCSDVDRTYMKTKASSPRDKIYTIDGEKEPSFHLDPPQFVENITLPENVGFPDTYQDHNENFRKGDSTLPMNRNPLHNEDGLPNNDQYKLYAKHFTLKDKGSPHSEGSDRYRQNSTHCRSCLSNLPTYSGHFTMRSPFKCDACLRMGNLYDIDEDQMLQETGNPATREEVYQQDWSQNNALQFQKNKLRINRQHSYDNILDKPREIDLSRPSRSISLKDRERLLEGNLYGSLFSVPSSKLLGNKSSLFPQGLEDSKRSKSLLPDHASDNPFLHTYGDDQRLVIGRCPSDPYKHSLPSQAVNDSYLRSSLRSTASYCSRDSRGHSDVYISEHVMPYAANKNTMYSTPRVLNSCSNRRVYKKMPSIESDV
Type: cell-based
Conditions: NR = no response up to 1000 μM
measure-name: EC50

Below are worked cases with known answers.
O=C(O)[C@H]1CN[C@H]1C(=O)O [D-cis-ADC, (2R,3S)-Azetidine-2,3-dicarboxylic acid] | > 1000 µM
O=C(O)[C@H]1NC[C@H]1C(=O)O [L-cis-ADC] | > 1000 µM
O=C(O)[C@H]1CN[C@@H]1C(=O)O [L-trans-ADC] | 470 µM

EC50 measured on O=C(O)[C@@H]1CN[C@H]1C(=O)O [D-trans-ADC, (2R,3R)-Azetidine-2,3-dicarboxylic acid] = > 1000 µM

---

Molecular target: NR1/NR2B (Rattus norvegicus, UniProt P35439+Q00960)
measure-name: EC50

Reported EC50 for O=C(O)[C@@H]1CN[C@H]1C(=O)O [D-trans-ADC, (2R,3R)-Azetidine-2,3-dicarboxylic acid] was > 1000 µM

---

pKi for assorted molecules
Target: native NMDA receptors
Test: Radioligand binding assay
Details: read-out: [3H]CGP39653 Ki; rat brain synaptosomes; mean of three to five experiments
Note on units: pKi is unitless, being -log10 of a concentration expressed in mol/L.

O=C(O)[C@H]1CN[C@H]1C(=O)O [D-cis-ADC, (2R,3S)-Azetidine-2,3-dicarboxylic acid] | 4.68
O=C(O)[C@H]1CN[C@@H]1C(=O)O [L-trans-ADC] | 5.00

Turning now to a further record.
Value of pKi reported for the molecule O=C(O)[C@@H]1CN[C@H]1C(=O)O [D-trans-ADC, (2R,3R)-Azetidine-2,3-dicarboxylic acid] is 4.05
